molecular target: EPS15 121-215, P42566
Sequence (P42566 121-215): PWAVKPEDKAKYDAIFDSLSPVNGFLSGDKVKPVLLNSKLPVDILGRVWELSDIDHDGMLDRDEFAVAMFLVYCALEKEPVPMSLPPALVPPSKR
experimental-readout: selected by phage display

| binder | selected by phage display |
| --- | --- |
| HANPSNPFYEALSTPS [LMTK3, Q96Q04] | confidence 4 (active) |
| DSPGLNASNPFTQLER [DLGAP5, Q15398] | confidence 2 (active) |
| NPFVPSMPAAPPTLPL [DENND1A, Q8TEH3] | confidence 2 (active) |
| NPFNEEPAETVSSSDT [PLEKHM2, Q8IWE5] | confidence 2 (active) |
| NPFNSSKLPEGHSSQQ [SYTL2, Q9HCH5] | confidence 2 (active) |

Request the reported selected by phage display associated with LNPFLTKSSGDVHLSI [PICALM, Q13492]
confidence 4 (active)

Query (binder): GGNPFASVGSSSSSGE [UBQLN2, Q9UHD9] ; field requested: selected by phage display
confidence 2 (active)
